# growth annotations
- System: UO-31 renal
- method.notes: NCI-60 one-dose screen, 48 h (100 = growth as untreated, 0 = no growth, -100 = all killed)
- measurement.conditions: 10 µM unless noted
This is part of a sample that, as a whole, favours compounds with a hit. Of some 83,000 tested, about 20% had one in any assay.
reported.metric: growth (%)

INSERT INTO results (smiles_structure, val) VALUES
  ('Cn1cc(/C=C2/C(=O)Nc3ccccc32)c2ccccc21', 57.9),
  ('O=C(/C=C/c1ccccc1)Nc1ncc(Cc2ccccc2)s1', 30.4),
  ('N/C(=N\c1nc2ccccc2s1)NC(=NC1CCCCC1)NC1CCCCC1', 20.1),
  ('CCn1cc(C(=O)NN=C2CCCCCC2)c(=O)c2ccc(C)nc21', 75.2),
  ('CCCCCCCC/C=C\CCCCCCCCOc1ccccc1CC(=O)NCC[N+]1(C)CCCCC1', 94.8),
  ('CCCCCSB(SCCCCC)c1ccccc1', 81.3);
